Assay summary: Dynamic solubility at 37 °C (HPLC; residual solid by XRPD)
Format: physicochemical
Condition context: water, 37 °C, thermodynamic from solid, 2 h
Endpoint name: solubility at 2 h (µg/mL)
Reply with just the number (in µg/mL).

Fill in the blank: the reported solubility at 2 h of CCc1nc(-c2ccc(-c3ccc(CCC(N)(CO)CO)cc3)cc2)co1.Cl [crystal form A] is ____.
2150

###

Assay summary: Dynamic solubility at 37 °C (HPLC; residual solid by XRPD)
Type: physicochemical
Condition context: Simulated Gastric Fluid (SGF), 37 °C, pH 1, simulated gastric fluid, thermodynamic from solid, SGF (pH = 1.0), 2 h
Endpoint name: solubility at 2 h (µg/mL)
Reply with just the number (in µg/mL).

Fill in the blank: the reported solubility at 2 h of CCc1nc(-c2ccc(-c3ccc(CCC(N)(CO)CO)cc3)cc2)co1.Cl [crystal form A] is ____.
260

Attribution: patent EP4640674A1
